Target: UniProt P23977
Assay type: binding
Settings: read-out: DA IC50 for inhibition of radioligand binding; DA=[3H]WIN 35,428
Text: Illustrative in vitro assays for binding are described in Boja et al Ann. NY Acad. Sci. 654:282-291 (1992), which is incorporated herein by reference in its entirety. […] Alternatively, the compounds may be analyzed by their ability to inhibit reuptake of a labelled neurotransmitter in a sample, in particular, in synaptosomes.
Structures can show the parent of a compound that is named as a salt.
IC50 values, listed per item

compound | units-label | IC50
CN1[C@H]2CC[C@@H]1[C@@H](c1ncc(-c3ccccc3)o1)[C@@H](c1ccc(Cl)cc1)C2 [RTI-4229-189, Tartrate] | nM | 19.7
Cc1ccc(C2CC3CCC([C@@H]2c2nc(-c4ccccc4)no2)N3C)cc1 (stereo partly shown) [RTI-4229-152] | nM | 494
Cc1cccc(OC(=O)C2C(c3ccc(Cl)cc3)CC3CCC2N3C)c1 (stereo not shown) [RTI-4229-203] | nM | 9.37
CCc1ccc(C2CC3CCC(C2C(=O)OC)N3C)cc1I (stereo not shown) [RTI-4229-295] | nM | 21.3
